// data source = patent US9345905B2

Consider the following molecules; for each one, report its pIC50.
Target Under Test: human HDAC6 (Homo sapiens, UniProt Q9UBN7)
Construct: Reaction Biology Corporation
Sequence (Q9UBN7 1-1215): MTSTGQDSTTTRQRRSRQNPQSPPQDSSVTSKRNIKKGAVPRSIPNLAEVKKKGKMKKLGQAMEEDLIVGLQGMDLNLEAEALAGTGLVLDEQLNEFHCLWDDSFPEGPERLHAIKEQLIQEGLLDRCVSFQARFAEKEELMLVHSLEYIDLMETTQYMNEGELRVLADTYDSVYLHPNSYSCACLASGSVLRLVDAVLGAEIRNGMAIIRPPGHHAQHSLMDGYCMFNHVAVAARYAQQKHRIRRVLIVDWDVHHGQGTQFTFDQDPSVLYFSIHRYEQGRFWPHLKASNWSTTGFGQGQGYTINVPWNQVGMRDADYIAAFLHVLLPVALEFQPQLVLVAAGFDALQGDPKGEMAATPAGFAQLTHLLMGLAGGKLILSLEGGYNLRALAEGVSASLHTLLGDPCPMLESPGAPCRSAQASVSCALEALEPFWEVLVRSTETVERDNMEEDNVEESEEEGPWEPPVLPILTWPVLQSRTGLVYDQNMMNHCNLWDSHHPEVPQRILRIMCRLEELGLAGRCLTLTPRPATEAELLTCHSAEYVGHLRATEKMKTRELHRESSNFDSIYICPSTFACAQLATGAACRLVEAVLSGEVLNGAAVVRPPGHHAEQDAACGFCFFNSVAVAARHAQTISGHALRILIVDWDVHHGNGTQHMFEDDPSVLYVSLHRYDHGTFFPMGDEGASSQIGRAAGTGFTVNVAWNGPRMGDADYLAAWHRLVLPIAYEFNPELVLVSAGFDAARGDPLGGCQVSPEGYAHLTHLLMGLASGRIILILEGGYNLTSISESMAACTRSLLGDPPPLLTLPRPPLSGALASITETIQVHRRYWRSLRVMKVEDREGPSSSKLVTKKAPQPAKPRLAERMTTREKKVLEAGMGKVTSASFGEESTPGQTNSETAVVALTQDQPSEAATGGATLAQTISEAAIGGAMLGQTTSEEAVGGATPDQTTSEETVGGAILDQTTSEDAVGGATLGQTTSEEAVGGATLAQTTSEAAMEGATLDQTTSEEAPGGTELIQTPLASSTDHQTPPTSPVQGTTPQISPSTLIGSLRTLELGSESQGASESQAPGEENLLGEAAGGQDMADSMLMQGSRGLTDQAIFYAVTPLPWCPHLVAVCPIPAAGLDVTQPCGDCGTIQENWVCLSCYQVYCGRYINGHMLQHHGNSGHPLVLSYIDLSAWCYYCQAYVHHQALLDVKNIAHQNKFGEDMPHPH
Method: HDAC6 inhibition, fluorogenic peptide substrate (Reaction Biology Corporation)
Format: biochemical
Conditions Used: 50 μM fluorogenic peptide from p53 residues 379-382 (RHKKAc) as substrate; read-out: IC50, HDAC6 inhibition
Keep in mind that pIC50 stands for -log10 of concentration in molar terms.

Request: Give me measured pIC50, please, for this molecule: CN1CCc2c(Cc3ccc(C(=O)NO)cc3)c3ccccc3n2C1
Result: 7.97

Request: Identify measured pIC50 corresponding to Cc1ccc2c(c1)c(Sc1ccc(C(=O)NO)cc1)c1n2CN(C)CC1
Result: 7.45

Request: Return pIC50 (reported value) for this molecule: CN1CCc2c(Sc3ccc(C(=O)NO)cc3)c3ccccc3n2C1
Result: 8.61

Request: Item CN1CCn2c(c(Sc3ccc(C(=O)NO)cc3)c3ccccc32)C1=O : provide pIC50
Result: 8.75
